Hey, just so you know, these numbers are from patent US7279302B2.

Target: TyrA-AT2 arogenate dehydrogenase (Arabidopsis thaliana, UniProt Q944B6)
Construct: at the ATG codon of the second open reading frame (at position 1081 from the first ATG codon)
Sequence (Q944B6 339-640): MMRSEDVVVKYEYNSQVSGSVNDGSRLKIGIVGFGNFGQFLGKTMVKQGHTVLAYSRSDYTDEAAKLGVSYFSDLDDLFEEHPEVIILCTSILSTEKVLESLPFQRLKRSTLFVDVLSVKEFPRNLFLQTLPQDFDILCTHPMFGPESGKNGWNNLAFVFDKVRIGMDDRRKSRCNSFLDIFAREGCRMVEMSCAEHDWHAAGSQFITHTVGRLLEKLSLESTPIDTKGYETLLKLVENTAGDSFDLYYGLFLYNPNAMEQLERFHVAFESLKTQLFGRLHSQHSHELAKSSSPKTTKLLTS
Test: arogenate dehydrogenase activity, spectrophotometric monitoring at 340 nm, recombinant TyrA-AT2
Details: inhibition competitive with respect to arogenate
Observation Type: Ki

compound="N[C@@H](Cc1ccc(O)cc1)C(=O)O [tyrosine]" observation_type=Ki test_result="12 µM"

* * *

Molecular target: TyrA-ATc arogenate dehydrogenase (Arabidopsis thaliana)
Construct: introduces an ATG initiating codon and an Nde I restriction site (underlined) at position 174 from the first ATG codon (V58M)
Experiment: arogenate dehydrogenase activity, spectrophotometric monitoring at 340 nm, recombinant TyrA-ATc
Details: TyrA-Atc; inhibition competitive with respect to arogenate
Observation Type: Ki (µM)

compound="N[C@@H](Cc1ccc(O)cc1)C(=O)O [tyrosine]" tested_on="TyrA-ATc arogenate dehydrogenase (Arabidopsis thaliana)" measurement_units=µM test_result=14
